measurement kind: pKd
Units for pKd: none; it is -log10 of a concentration expressed in mol/L.

Request - read-out pKd | tested on Rv2887 (Mycobacterium tuberculosis, UniProt P9WME9) | molecule `Nc1ccc(C(=O)O)c(O)c1`
3.74

Request - read-out pKd | tested on Rv2887 (Mycobacterium tuberculosis, UniProt P9WME9) | molecule `Cc1ccc(C)c(OCCCC(C)(C)C(=O)O)c1`
5.10
